- Tested on: Anxiety in the Adult Male Rat
- assay.protocol: Suppression of Anxiety in the Adult Male Rat (rat conflict test)
- Assay type: in vivo, rats
- condition.description: Rattus norvegicus, po, rat, po; read-out: Rat Conflict (MED, mg/kg) po
measured.attribute: minimal effective dose (mg/kg)
The response must be a number in mg/kg with no trailing unit.

q: Determine its reported minimal effective dose: `CCOCN1C2=C(C(=O)Nc3ccccc3F)C(=O)CCN2c2ccc(F)cc21`
a: 0.3

q: Kindly indicate its recorded minimal effective dose. Item: `COCCNCCN1C2=C(C(=O)Nc3ccccc3F)C(=O)CCN2c2ccc(F)cc21`
a: 10

q: Quickly give me recorded minimal effective dose for `CC(=O)OCCN1C2=C(C(=O)Nc3ccccc3F)C(=O)CCN2c2ccc(F)cc21`
a: 3

q: Give the value of minimal effective dose reported for the following: `O=C1CCN2C(=C1C(=O)Nc1ccccc1F)N(CCNS(=O)(=O)C(F)(F)F)c1cc(F)ccc12`
a: 10

q: Note down minimal effective dose recorded for `CN(C)CCN1C2=C(C(=O)Nc3ccc(F)cc3F)C(=O)CCN2c2ccc(F)cc21`
a: 3

q: Please indicate minimal effective dose recorded for `CCOCN1C2=C(C(=O)Nc3ccc(OC)cc3)C(=O)CCN2c2ccc(F)cc21`
a: 0.1
